test system: Rattus norvegicus; experiment: Antihypertensive activity in spontaneous hypertensive rat assessed as change in systolic blood pressure at 25 mg/kg, po administered […] measured 2 hrs post last dose on day 3 by tail-cuff method relative to vehicle-treated control; format: functional, Artery
Below, each of the compounds is paired with its reported Activity value.
Please respond with the number in mmHg and leave the unit unwritten.

Worked set:
Data request: Which measured Activity value corresponds to CN(C(=O)c1cccc(C(F)(F)F)c1)C1CCN2CCc3c([nH]c4ccccc34)[C@@H]2C1 (some centres not stated) ?
Data returned: -56

Data request: Sample `Cc1cccc(C(=O)N[C@H]2CCN3CCc4c([nH]c5ccccc45)[C@@H]3C2)c1` — what was its Activity?
Data returned: -53

Data request: // lookup Activity for `COc1cc(C(=O)N[C@@H]2CCN3CCc4c([nH]c5ccccc45)[C@@H]3C2)cc(OC)c1OC`
Data returned: -25

Data request: Please look up its Activity: `COc1ccc(C(=O)N[C@@H]2CCN3CCc4c([nH]c5ccccc45)[C@@H]3C2)cc1`
Data returned: 10

Data request: What value of measured Activity is listed for `Cc1ccc(C(=O)N[C@H]2CCN3CCc4c([nH]c5ccccc45)[C@@H]3C2)cc1` ?
Data returned: -32

Data request: Return reported Activity; argument: CN(C(=O)c1cccc(F)c1)C1CCN2CCc3c([nH]c4ccccc34)[C@@H]2C1 (some centres not stated)
Data returned: -76

Here's the next entry for you.
Data request: # get_value(readout='Activity', item= `O=C(Nc1ccccc1)N[C@H]1CCN2CCc3c([nH]c4ccccc34)[C@@H]2C1` )
Data returned: -6

* * *

Catalogue of compounds with associated Activity
test system: Rattus norvegicus; assay: Antihypertensive activity in spontaneous hypertensive rat assessed as change in systolic blood pressure at 25 mg/kg, po administered […] measured 2 hrs post last dose on day 3 by tail-cuff method relative to vehicle-treated control; type: functional, Artery
Field: numeric (mmHg). Do not append units.

// below: answered compounds
Data request: Which value of Activity has been reported for CN(C(=O)c1ccccc1Cl)C1CCN2CCc3c([nH]c4ccccc34)[C@@H]2C1 (stereo not given in full) in the records?
Data returned: -13

Data request: # Activity lookup, item CCn1c2c(c3ccccc31)CCN1CCC(N(C)C(=O)c3ccccc3)C[C@@H]21 (stereo not given in full)
Data returned: -63

Data request: Need Activity, item CCN(C(=O)c1ccccc1)C1CCN2CCc3c([nH]c4ccccc34)[C@@H]2C1 (stereo not given in full)
Data returned: -92

Further cases:
Data request: Which Activity reading was recorded for the compound `c1ccc(N[C@H]2CCN3CCc4c([nH]c5ccccc45)[C@@H]3C2)cc1` ?
Data returned: 5.75

Data request: Bench note: what Activity did NC1CCN2CCc3c([nH]c4ccccc34)[C@@H]2C1 (stereo not given in full) show?
Data returned: -9.5

Data request: Please give the measured Activity for this compound: CN(C(=O)c1cccc(Cl)c1)C1CCN2CCc3c([nH]c4ccccc34)[C@@H]2C1 (stereo not given in full)
Data returned: -54

Data request: Suppose we examine the compound `COc1ccc(C(=O)N(C)[C@@H]2CCN3CCc4c([nH]c5ccccc45)[C@@H]3C2)cc1` ; what Activity value has been reported?
Data returned: -72

* * *

test system: Rattus norvegicus; assay: Antihypertensive activity in spontaneous hypertensive rat assessed as change in systolic blood pressure at 25 mg/kg, po administered […] measured 2 hrs post last dose on day 3 by tail-cuff method relative to vehicle-treated control; assay type: functional, Artery
MEASURE: Activity (mmHg)
Your answer is read as mmHg, so omit the unit and give the number.

Data request: Request the reported Activity associated with `O=C(N[C@@H]1CCN2CCc3c([nH]c4ccccc34)[C@@H]2C1)c1ccc(F)cc1`
Data returned: -24

Data request: Query: Activity; subject: c1ccc(NC2CCN3CCc4c([nH]c5ccccc45)[C@@H]3C2)cc1 (stereo partly drawn)
Data returned: -25

Further cases:
Data request: Suppose we examine the compound c1ccc(CNC2CCN3CCc4c([nH]c5ccccc45)[C@@H]3C2)cc1 (stereo partly drawn) ; what Activity value has been reported?
Data returned: -8
